- TEST TARGET: HsSQS (Homo sapiens, UniProt P37268)
- Sequence (P37268 whole entry): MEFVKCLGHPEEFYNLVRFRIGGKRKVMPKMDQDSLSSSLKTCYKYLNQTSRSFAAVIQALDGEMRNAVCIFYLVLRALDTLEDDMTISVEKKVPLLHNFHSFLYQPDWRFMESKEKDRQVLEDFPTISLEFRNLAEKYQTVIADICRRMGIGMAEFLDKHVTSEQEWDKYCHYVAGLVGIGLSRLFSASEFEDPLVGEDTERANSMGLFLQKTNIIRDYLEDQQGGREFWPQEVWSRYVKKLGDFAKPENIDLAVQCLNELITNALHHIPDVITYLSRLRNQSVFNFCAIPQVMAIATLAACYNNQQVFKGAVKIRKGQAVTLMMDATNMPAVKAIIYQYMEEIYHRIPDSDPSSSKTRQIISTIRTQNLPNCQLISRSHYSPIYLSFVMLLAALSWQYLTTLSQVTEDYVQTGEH
Exercise: for every item that follows, state its recorded pIC50.
One number for each entry, as −log10 of the molar value.

# example entries with known answers
{"COMPOUND": "CCCCCCCCCCCC[n+]1ccn(CC(P(=O)([O-])O)P(=O)(O)O)c1 (stereo not shown) [BPH-703]", "READOUT NAME": "pIC50", "VALUE": 6.85}
{"COMPOUND": "CCCCCCCCCCCCCC[n+]1ccn(CC(O)(P(=O)([O-])O)P(=O)(O)O)c1 (stereo not shown) [BPH-1338]", "READOUT NAME": "pIC50", "VALUE": 6.62}
{"COMPOUND": "CCCCCCCCC[n+]1ccn(CC(P(=O)([O-])O)P(=O)(O)O)c1 (stereo not shown) [BPH-1327]", "READOUT NAME": "pIC50", "VALUE": 7.00}

// moving on: another record for pIC50
Request: // lookup pIC50 for CCCCCCCCCCCCCCCn1cc[n+](CC(P(=O)([O-])O)P(=O)(O)O)c1 (stereo not shown) [BPH-1344]
Result: 6.59

* * *

Observed IC50 values for TcSQS (Trypanosoma cruzi, UniProt Q4CWB4) are listed in what follows.

{"COMPOUND": "O=P(O)(O)C(Cn1ccnc1)P(=O)(O)O", "READOUT NAME": "IC50", "VALUE": "> 10 µM"}
{"COMPOUND": "CCCC[n+]1ccn(CC(O)(P(=O)([O-])O)P(=O)(O)O)c1 (centres unmarked)", "READOUT NAME": "IC50", "VALUE": "> 10 µM"}
{"COMPOUND": "O=P(O)(O)C(O)(Cn1ccnc1)P(=O)(O)O", "READOUT NAME": "IC50", "VALUE": "> 10 µM"}
{"COMPOUND": "CCCC[n+]1ccn(CC(P(=O)([O-])O)P(=O)(O)O)c1 (centres unmarked)", "READOUT NAME": "IC50", "VALUE": "> 10 µM"}
{"COMPOUND": "CCC[n+]1ccn(CC(O)(P(=O)([O-])O)P(=O)(O)O)c1 (centres unmarked)", "READOUT NAME": "IC50", "VALUE": "> 10 µM"}

// for each compound in input: emit IC50
1. CCC[n+]1ccn(CC(P(=O)([O-])O)P(=O)(O)O)c1 (centres unmarked)
2. CCCCCCCCCCC[n+]1ccn(CC(O)(P(=O)([O-])O)P(=O)(O)O)c1 (centres unmarked)
3. CCCCC[n+]1ccn(CC(P(=O)([O-])O)P(=O)(O)O)c1 (centres unmarked)
4. CCCCCC[n+]1ccn(CC(P(=O)([O-])O)P(=O)(O)O)c1 (centres unmarked)
5. CCCCCCCCCCCCC[n+]1ccn(CC(P(=O)([O-])O)P(=O)(O)O)c1 (centres unmarked)

Result:
1. > 10 µM
2. 0.03 µM
3. > 10 µM
4. 2 µM
5. 0.058 µM

Request: // lookup IC50 for C[n+]1ccn(CC(P(=O)([O-])O)P(=O)(O)O)c1 (centres unmarked)
Result: > 10 µM
